test system: HIV-1JR-CSF; assay: microbe, parasite or virus in culture; type: cell-based; details: read-out: IC50 JR-CSF; single round infection assay
observable: pIC50
When answering, recall that pIC50 equals minus log10 of the concentration in mol/L, and write that number alone.

Some compounds with known pIC50 results, for comparison:
[
  {
    "compound": "COc1ncc(OC)c2c(C(=O)C(=O)N3CC4CN(C(=O)c5ccccc5)CC4C3)c[nH]c12 (stereo not drawn)",
    "system_under_test": "HIV-1JR-CSF",
    "pIC50": 7.05
  },
  {
    "compound": "COc1cnc(-n2cnc(C)n2)c2[nH]cc(C(=O)C(=O)N3CC4CN(C(=O)c5ccccc5)CC4C3)c12 (stereo not drawn)",
    "system_under_test": "HIV-1JR-CSF",
    "pIC50": 9.10
  }
]

Reported pIC50 of O=C(c1ccccc1)N1CC2CN(C(=O)c3ccc4c5c(cccc35)CC4)CC2C1 (stereo not drawn) : 4.00
